target: Des1 (h) (Homo sapiens); construct: endogenous in cells; host or cells: parental Jurkat cells; test: Measurement of Dihydroceramide Desaturase-1 (Des-1) activity in intact Jurkat cells labeled with DhCer-C6-NBD (HPLC); format: cell-based; conditions: intact Jurkat cells; given as concentration range, or <X / >X if measured at one concentration X only; read-out: Des1 (h) Jurkat IC50
Sequence (O15121 whole entry): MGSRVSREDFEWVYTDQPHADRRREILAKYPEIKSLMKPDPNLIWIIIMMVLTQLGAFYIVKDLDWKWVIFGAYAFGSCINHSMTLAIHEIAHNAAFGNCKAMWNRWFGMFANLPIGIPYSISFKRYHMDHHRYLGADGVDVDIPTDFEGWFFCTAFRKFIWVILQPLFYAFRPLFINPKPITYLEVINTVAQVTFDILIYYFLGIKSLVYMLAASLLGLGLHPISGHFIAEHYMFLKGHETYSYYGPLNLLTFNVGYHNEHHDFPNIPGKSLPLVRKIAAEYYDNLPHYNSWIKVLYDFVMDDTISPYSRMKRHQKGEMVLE
pIC50: −log10 of the molar value.
readout_type: pIC50

Previously resolved entries follow.
INSERT INTO assay_data (compound, readout_type, result) VALUES
  ('CN(O)C(=O)c1ncc(Nc2ncc(-c3ccc(C(F)(F)F)cc3)o2)cc1O', 'pIC50', '> 6.00'),
  ('N=C(NO)c1ccc(Nc2ncc(-c3ccc(C(F)(F)F)cc3)o2)cn1', 'pIC50', '6.00 to 7.00'),
  ('O=C(NC[C@@H](O)CO)c1ccc(Nc2ncc(-c3ccc(C(F)(F)F)cn3)o2)cn1', 'pIC50', '7.00 to 8.00'),
  ('Cc1nc(Nc2ccc(C(=O)NC[C@@H](O)CO)nc2)oc1-c1ccc(C(F)(F)F)cc1', 'pIC50', '> 6.00');

I would be grateful if you could share the reported pIC50 for N/C(=N\O)c1ccc(Nc2ncc(-c3ccc(Cl)cc3)o2)cn1 .
> 6.00

Bench note: what pIC50 did N/C(=N\O)c1cnc(Nc2ncn(-c3ccc(C(F)(F)F)cc3)n2)cn1 show?
> 6.00

Data request, read-out pIC50, for O=C(NCCO)c1ccc(Nc2ncc(-c3ccc(C(F)(F)F)cc3)o2)cn1
5.00 to 6.00

// returns reported pIC50 for input N=C(NO)c1ccc(Nc2ncc(-c3ccc(C(F)(F)F)cn3)o2)cn1
6.00 to 7.00

State the recorded pIC50 for this entry: O=S(=O)(NCC(O)CO)c1ccc(Nc2ncc(-c3ccc(C(F)(F)F)cc3)o2)cn1 (racemic)
< 6.00

What does the data say about its pIC50? Entry: O=C(NCC(O)CO)c1ccc(Nc2ncc(-c3ccc(C(F)(F)F)cc3)o2)cn1 (racemic)
8.00 to 9.00
